Value source: the supplement of paper PMC3334620

Target: Upc2 (UniProt Q12151)
Sequence: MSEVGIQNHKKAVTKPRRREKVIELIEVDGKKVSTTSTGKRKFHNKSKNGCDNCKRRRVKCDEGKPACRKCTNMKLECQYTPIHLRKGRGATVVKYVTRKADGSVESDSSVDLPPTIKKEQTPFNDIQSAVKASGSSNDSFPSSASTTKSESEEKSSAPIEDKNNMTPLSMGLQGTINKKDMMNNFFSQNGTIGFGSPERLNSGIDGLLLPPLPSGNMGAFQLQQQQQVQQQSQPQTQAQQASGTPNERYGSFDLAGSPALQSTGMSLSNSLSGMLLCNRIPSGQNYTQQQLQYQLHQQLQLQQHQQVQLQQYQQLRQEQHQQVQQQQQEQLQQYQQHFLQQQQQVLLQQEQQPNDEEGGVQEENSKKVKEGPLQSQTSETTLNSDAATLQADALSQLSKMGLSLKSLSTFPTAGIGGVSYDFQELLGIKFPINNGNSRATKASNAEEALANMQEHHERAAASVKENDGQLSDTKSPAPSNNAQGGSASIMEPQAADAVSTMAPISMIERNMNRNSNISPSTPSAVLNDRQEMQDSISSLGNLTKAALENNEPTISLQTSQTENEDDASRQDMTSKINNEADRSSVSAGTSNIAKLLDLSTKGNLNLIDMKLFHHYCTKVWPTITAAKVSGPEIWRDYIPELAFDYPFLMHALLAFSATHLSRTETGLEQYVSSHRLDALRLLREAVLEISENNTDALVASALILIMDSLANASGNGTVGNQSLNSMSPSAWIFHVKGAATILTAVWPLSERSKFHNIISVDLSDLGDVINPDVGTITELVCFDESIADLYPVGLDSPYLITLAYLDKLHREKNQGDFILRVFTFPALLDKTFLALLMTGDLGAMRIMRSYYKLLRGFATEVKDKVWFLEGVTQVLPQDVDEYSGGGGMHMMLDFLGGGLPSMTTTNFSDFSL
Experiment: PBM E-score (8-mer binding enrichment) (E-score (-0.5 to 0.5)); higher = stronger / more preferred TF binding
Conditions: protein concentration: 200 nM; construct: GST-full length
The full ranking holds about 33,000 sequences; the median of “E-score (-0.5 to 0.5)” is about -0.043, and the highest 2% start at about 0.37. Shown is part of a subset that was picked to be rich in the highest values.
metric: PBM E-score
I'd appreciate a reply containing only the number, no unit.

Quick note, PBM E-score for "AACCTCGA" landed at 0.0605

So, "ACGTACCG" ? Its PBM E-score was 0.272

Note to self: PBM E-score recorded for "CCCGCAAG" was -0.239

Input "AACCTCGT" . Output PBM E-score: 0.372

"ACCCTCGC" has a reported PBM E-score of 0.0921

Value of PBM E-score reported for the sequence "CCGTACCG" is 0.389

Measured PBM E-score of "CGTCGATA" : -0.028

"ACGTACCC" yielded PBM E-score of 0.203

PBM E-score in this record for "ACCCTCGT" : 0.419

// PBM E-score value for "CCGTACCC" : 0.379

Lab note: measured PBM E-score of "ACCCTCGA" was -0.244

---

Target: Upc2 (UniProt Q12151)
Sequence: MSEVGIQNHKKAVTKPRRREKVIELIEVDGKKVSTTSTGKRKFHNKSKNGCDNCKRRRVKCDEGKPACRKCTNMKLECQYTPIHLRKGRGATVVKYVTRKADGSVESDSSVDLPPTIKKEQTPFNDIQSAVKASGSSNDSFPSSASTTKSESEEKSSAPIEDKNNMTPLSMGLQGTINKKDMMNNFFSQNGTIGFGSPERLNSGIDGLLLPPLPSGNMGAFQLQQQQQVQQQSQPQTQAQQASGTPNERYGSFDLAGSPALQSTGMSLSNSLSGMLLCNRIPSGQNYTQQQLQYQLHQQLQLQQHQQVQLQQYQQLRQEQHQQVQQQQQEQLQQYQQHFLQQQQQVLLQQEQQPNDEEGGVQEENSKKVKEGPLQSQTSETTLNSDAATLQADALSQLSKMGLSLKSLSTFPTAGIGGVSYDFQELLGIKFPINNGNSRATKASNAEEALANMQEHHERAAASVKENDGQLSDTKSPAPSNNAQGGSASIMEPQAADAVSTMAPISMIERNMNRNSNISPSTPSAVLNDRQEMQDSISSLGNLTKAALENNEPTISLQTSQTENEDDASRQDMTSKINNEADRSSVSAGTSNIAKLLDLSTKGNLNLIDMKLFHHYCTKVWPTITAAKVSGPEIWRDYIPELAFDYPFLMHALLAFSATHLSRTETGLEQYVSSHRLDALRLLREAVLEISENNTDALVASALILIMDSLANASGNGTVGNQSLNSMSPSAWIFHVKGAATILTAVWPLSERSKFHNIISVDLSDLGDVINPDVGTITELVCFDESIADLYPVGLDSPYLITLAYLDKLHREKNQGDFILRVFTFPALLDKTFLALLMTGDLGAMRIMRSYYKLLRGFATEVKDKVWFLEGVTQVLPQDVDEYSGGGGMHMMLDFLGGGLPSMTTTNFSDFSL
Assay: PBM E-score (8-mer binding enrichment) (E-score (-0.5 to 0.5)); higher = stronger / more preferred TF binding
Details: protein concentration: 200 nM; construct: GST-full length
Whole data set: some 33,000 sequences, median “E-score (-0.5 to 0.5)” near -0.043, cut for the highest 2% near 0.37. What follows is part of a selection rich in the highest values, with near analogues and random picks from the rest.
Consider the following sequences; for each one, report its PBM E-score.
Output spec: single numeric token, no unit.

Input "GCGTTTAC" . Output PBM E-score: 0.372

Reported PBM E-score ( "CACGACTG" ) = 0.0762

Query "CTGGGGCA" yields PBM E-score of -0.2

"GCGTTTAA" yielded PBM E-score of 0.4

# PBM E-score of "ACAAGACT" = -0.00931

PBM E-score reading for "AACGACTG" : 0.389

Lab note: "CCTCAGTA" gave PBM E-score of -0.0614

Record "CTGTTTAC" , field PBM E-score: 0.142

Reported PBM E-score of "CCGGGCTA" : -0.18

sequence "CTGTTTAA" , PBM E-score observed: 0.0306

The recorded PBM E-score for "GTGAGAAC" is -0.188

Kindly note the recorded PBM E-score for "GACGACTC" , which is -0.052

The recorded PBM E-score for "ACGTTTAC" is 0.369

Record summary for "CACGACTA" : reported PBM E-score = -0.0651

Memo: "ATCGACTG" , reported PBM E-score: 0.0556

Noted for "GCGTTTCC" : its PBM E-score reads 0.0493

Looking up "GCGTTTGA" , I see its PBM E-score listed as 0.151

get_value(item= "ACAACACT" , readout=PBM E-score) returns 0.0862

Summary for this sequence, "AACGACTA" : PBM E-score is 0.379

PBM E-score recorded for this sequence, "AGCGACTA" , is 0.154

PBM E-score reading for "CCGTTTAC" : 0.451

PBM E-score measured on "ATTTAGAA" = -0.14

---

Target: Upc2 (UniProt Q12151)
Sequence: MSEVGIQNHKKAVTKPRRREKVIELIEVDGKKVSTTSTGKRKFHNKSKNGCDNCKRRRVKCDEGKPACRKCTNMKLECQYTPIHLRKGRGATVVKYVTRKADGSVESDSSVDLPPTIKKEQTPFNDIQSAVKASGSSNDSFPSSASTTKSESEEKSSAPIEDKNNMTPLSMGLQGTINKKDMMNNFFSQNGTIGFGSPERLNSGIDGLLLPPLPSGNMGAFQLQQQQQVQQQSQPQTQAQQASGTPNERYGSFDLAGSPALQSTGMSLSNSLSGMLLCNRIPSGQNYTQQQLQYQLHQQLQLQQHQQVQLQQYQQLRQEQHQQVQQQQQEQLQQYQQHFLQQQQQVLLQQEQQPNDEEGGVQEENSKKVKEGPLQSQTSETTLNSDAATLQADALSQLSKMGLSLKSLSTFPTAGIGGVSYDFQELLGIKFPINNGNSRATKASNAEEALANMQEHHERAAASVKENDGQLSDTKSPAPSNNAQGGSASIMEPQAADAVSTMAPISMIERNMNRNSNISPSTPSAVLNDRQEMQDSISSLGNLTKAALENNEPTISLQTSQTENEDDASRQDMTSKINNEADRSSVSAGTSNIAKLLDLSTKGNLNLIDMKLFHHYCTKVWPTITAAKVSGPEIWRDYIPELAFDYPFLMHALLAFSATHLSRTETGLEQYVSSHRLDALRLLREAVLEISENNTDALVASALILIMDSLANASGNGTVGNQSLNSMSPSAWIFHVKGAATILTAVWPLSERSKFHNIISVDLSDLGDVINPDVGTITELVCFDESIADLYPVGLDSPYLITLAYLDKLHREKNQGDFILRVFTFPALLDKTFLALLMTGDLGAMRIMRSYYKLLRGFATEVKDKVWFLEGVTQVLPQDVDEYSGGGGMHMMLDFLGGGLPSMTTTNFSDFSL
Assay: PBM E-score (8-mer binding enrichment) (E-score (-0.5 to 0.5)); higher = stronger / more preferred TF binding
Conditions: protein concentration: 200 nM; construct: GST-full length
Whole data set: some 33,000 sequences, median “E-score (-0.5 to 0.5)” near -0.043, cut for the highest 2% near 0.37. The entries come from a sample that favours the highest values as a whole.
Think of 0.06 as a floor: if PBM E-score stands on it or above, it is Yes; beneath it, No.

// query Has "GATCTCTA" a recorded PBM E-score greater than or equal to 0.06?
// result No

// query PBM E-score >= 0.06 for "CAAGCTTG" ?
// result No

// query Does PBM E-score meet or surpass 0.06 for "CTCGTTCA" ?
// result Yes

// query Does "CGAAACCA" have a reported PBM E-score of at least 0.06?
// result Yes

// query Could you tell me if the measured PBM E-score of "CGAAACGC" reaches 0.06 or more?
// result Yes

// query Check this sequence for PBM E-score at or above 0.06: "AACACCTT"
// result Yes

// query Hi, just wondering whether "CTCGTTGA" shows PBM E-score of 0.06 or higher.
// result Yes

// query Check the entry "CTCGTTCC" : does PBM E-score equal or exceed 0.06?
// result Yes

// query Given "AGTGAACT" , state whether its PBM E-score is at least 0.06.
// result No

// query # check: PBM E-score of "AGAAACGC" is greater than or equal to 0.06
// result No

// query Could you tell me if the measured PBM E-score of "ATGCGTGC" reaches 0.06 or more?
// result No

// query # bool: PBM E-score of "GACGTACA" >= 0.06
// result Yes

// query Check this sequence for PBM E-score at or above 0.06: "AACGTACA"
// result Yes

// query Tell me whether PBM E-score is at least 0.06 here: "AGCGTACA"
// result Yes

// query Has "ATCGTACA" a recorded PBM E-score greater than or equal to 0.06?
// result Yes

// query Could you please find out whether "CGAAACGA" has PBM E-score that meets 0.06 or exceeds it?
// result Yes

// query Please tell me: is the sequence "GTCGTACA" at or over 0.06 in terms of PBM E-score?
// result Yes

// query Does PBM E-score meet or surpass 0.06 for "AACGTACG" ?
// result Yes

// query Given "AACGTACC" , state whether its PBM E-score is at least 0.06.
// result Yes

// query Hi, just wondering whether "GATGAGGA" shows PBM E-score of 0.06 or higher.
// result No

// query Please indicate if the recorded PBM E-score for "GGCGTTCA" meets or exceeds 0.06.
// result No

// query Dear colleague, could you confirm whether "GAAAACGA" has PBM E-score at or above 0.06?
// result Yes
